// provenance: patent US20240360114A1

Test system: HT-1080 cells
Test Method Notes: HT-1080 cell viability assay (ferroptosis induced by RSL3, Cell Titer-Glo)
Type: cell-based
Conditions: Homo sapiens, HT-1080, 20 h, ferroptosis inducer RSL3, 20 hours, ferroptosis inhibitory activity, Table 2
pEC50: −log10 of the molar value.
Measure Name: pEC50

Query :: Consider the compound CC(C)(C)c1ccc(NC2CCC(NCCCO)CC2)cc1 (stereo not shown) and give its recorded pEC50.
Result :: 7.00 to 10.00

Query :: Give me measured pEC50, please, for this compound: CC1(C)CN(c2ncc(NC3CCC(N)CC3)cn2)C1 (stereo not shown) [Compound 33A]
Result :: 5.00 to 6.00

Query :: Return value of pEC50 for input Cc1nc(N2CC[Si](C)(C)CC2)ccc1NC1CC2(CC(N)C2)C1 (stereo not shown) , no commentary.
Result :: 7.00 to 10.00

Query :: Name the recorded pEC50 of the compound listed here: Cc1cc(N2CCC(C(F)(F)F)CC2)c(C)cc1NC1CCC(N)CC1 (stereo not shown)
Result :: 7.00 to 10.00

Query :: Give the reported pEC50 for this compound. CC(C)C1CCN(c2ccc(NC3CCC(N)CC3)cc2)CC1 (stereo not shown)
Result :: 7.00 to 10.00

Query :: Note pEC50 for the compound shown: Cc1nc(N2CC(C)(C)OC(C)(C)C2)ccc1NC[C@H]1CC[C@H](N)CC1
Result :: 7.00 to 10.00

Query :: // fetch pEC50 given entry C[C@H]1CN(c2ccc(NC[C@H]3CC[C@H](N)CC3)cc2F)C[C@H](C)O1
Result :: 7.00 to 10.00

Query :: Identify measured pEC50 corresponding to Cc1cc(NC2CCC(C)(N)CC2)cc(C)c1C (single isomer, unassigned) [Compound 313A]
Result :: 7.00 to 10.00

Query :: State, in one line, measured pEC50 of CC1CN(c2ccc(NC3CCC(N)CC3)cc2F)CC(C)O1 (stereo not shown)
Result :: 6.00 to 7.00

Query :: Determine from records and report pEC50 for NC1CCC(Nc2cccc3c2CCO3)CC1 (stereo not shown)
Result :: 5.00 to 6.00

Query :: Provide only the value of recorded pEC50 for CC1(C)CCN(c2ncc(NC3C4CC5CC3CC(C(N)=O)(C5)C4)cn2)CC1 (stereo not shown)
Result :: 7.00 to 10.00

Query :: Provide only the value of recorded pEC50 for Cc1cc(N2CCC(C(F)(F)F)CC2)cc(C)c1NCC[C@H]1CC[C@H](N)CC1
Result :: 7.00 to 10.00

Query :: Report pEC50 for CCOCCCc1ccc(NC2CCC(N)CC2)cc1 (stereo not shown)
Result :: 6.00 to 7.00

Query :: Please report pEC50 for the following compound: COC1(C(F)(F)F)CCN(c2ccc(NC[C@H]3CC[C@H](N)CC3)cc2)CC1
Result :: 7.00 to 10.00

Query :: Identify measured pEC50 associated with C[C@@H](O)[C@H](N)C(=O)NC1CCC(Nc2ccc(C(C)(C)C)cc2)CC1 (stereo partly shown)
Result :: 7.00 to 10.00

Query :: Please supply the value of reported pEC50 for the item CC(C)(C)c1ccc(NC2CCC(N)CC2)cc1F (stereo not shown) [Compound 242A]
Result :: 7.00 to 10.00

Query :: State its pEC50 for this compound: CC(C)(C)c1ccc(NC2CCc3nc(N)sc3C2)cc1 (stereo not shown)
Result :: 6.00 to 7.00

Query :: Given the compound CC1(C)CCC(c2ccc(NCCCCN3CCCC3)cc2)CC1 , write its reported pEC50.
Result :: 7.00 to 10.00

Query :: Input CC(C)(C)c1ccc(NC2CCC(CCCCCN)CC2)cc1 (stereo not shown) , output reported pEC50.
Result :: 7.00 to 10.00

Query :: Please supply the value of reported pEC50 for the item CCCCCc1ccc(NC2CCC(N)CC2)cc1 (stereo not shown)
Result :: 7.00 to 10.00

Query :: Please list pEC50 recorded for the compound CC(C)C1CCN(c2ncc(NC3CCC(CN)C3)cn2)CC1 (stereo not shown)
Result :: 7.00 to 10.00

Query :: Provide only the value of recorded pEC50 for CC1(C)CCC(c2ccc(NC3CCC(C(N)=O)C3)cc2)CC1 (single isomer, unassigned) [Compound 146A]
Result :: 7.00 to 10.00

Query :: Give pEC50 for CC(N)C1CCC(Nc2ccc(C(C)(C)C)cc2)CC1 (stereo not shown)
Result :: 7.00 to 10.00

Query :: Supply recorded pEC50 for CC1CN(c2ccc3cc(NC4CC5(CC(N)C5)C4)ncc3c2)CC(C)O1 (stereo not shown) here.
Result :: 7.00 to 10.00

Query :: Please look at this compound and report its pEC50: Cc1cc(N2CC(C)OC(C)C2)ccc1NC[C@H]1CC[C@H](N)CC1 (stereo partly shown)
Result :: 7.00 to 10.00

Query :: Tell me its pEC50 given CC(C)C1CCN(c2ncc(NC[C@H]3CC[C@H](N)CC3)cn2)CC1 as the entry.
Result :: 7.00 to 10.00

Query :: Entry NC1CCCCC1Nc1ccc(N2CCC(C(F)(F)F)CC2)cc1 (stereo not shown) needs its pEC50 filled in; supply it.
Result :: 7.00 to 10.00

Query :: # return recorded pEC50 for entry Cc1cc(NC2CC(C(=O)NN)C2)ccc1N1CCC(C)CC1 (stereo not shown)
Result :: 7.00 to 10.00

Query :: Please indicate pEC50 recorded for Cc1cc(N2CC(C)OC(C)C2)ccc1NC1CCCCC1N (stereo not shown)
Result :: 6.00 to 7.00

Query :: Input Cc1ccc(NC2CCC(N)CC2)cc1 (stereo not shown) , output reported pEC50.
Result :: 6.00 to 7.00

Query :: Specify reported pEC50 for the compound shown: CCC(C)(C)c1ccc(NC2CCC(N)(CO)CC2)cc1 (stereo not shown) [Compound 296A]
Result :: 7.00 to 10.00

Query :: Quickly give me recorded pEC50 for O=C1CC(C(=O)NC2CCC(Nc3ccc(C4CCCCC4)cc3)CC2)CN1 (stereo not shown)
Result :: 6.00 to 7.00

Query :: Look up and report measured pEC50 for this entry: CC1CCN(c2ccc(NC3CCC(N)CC3)cc2)CC1 (stereo not shown)
Result :: 7.00 to 10.00

Query :: Tell me pEC50 reported for CC(C)c1ccc(NC2CCC(CN)CC2)cc1 (stereo not shown)
Result :: 7.00 to 10.00

Query :: Identify the reported pEC50 for the following entry. CNCC1CCC(Nc2ccc(C3CCC(C)(C)CC3)cc2)CC1 (stereo not shown)
Result :: 7.00 to 10.00

Query :: Tell me measured pEC50 for CC(C)C1CCN(c2ncc(NC3C[C@H]4CC(N)C[C@H]4C3)cn2)CC1 (stereo partly shown) please.
Result :: 7.00 to 10.00

Query :: Please report the measured pEC50 for Cc1nc(N2CC(C)OC(C)C2)ccc1NC1CC2CC1CC2N (stereo not shown)
Result :: 7.00 to 10.00
